# study target: HLA-B*07:02
# protocol summary: IEDB peptide-MHC binding, purified MHC/competitive/radioactivity; bounds were set here for any values at or beyond the usual limits of such assays
# run conditions: source organism: dengue virus type 4
reported metric: IC50 (pM)
Give bare numbers, in pM.

Give HLA-B*07:02 IC50 for the following sequence: LPSIVREAL
310

---

# study target: HLA-A*03:01
# protocol summary: IEDB peptide-MHC binding, purified MHC/competitive/fluorescence; bounds were set here for any values at or beyond the usual limits of such assays
# run conditions: source organism: Vaccinia virus WR
reported metric: IC50 (µM)
Give bare numbers, in µM.

Tell us which IC50 value is on record for QAFYTRVLK
1.47

---

# study target: HLA-B*48:01
# protocol summary: IEDB peptide-MHC binding, purified MHC/direct/fluorescence; filed as Kd, often an IC50 or EC50 that approximates it; bounds were set here for any values at or beyond the usual limits of such assays
# run conditions: source organism: Vibrio vulnificus YJ016
reported metric: Kd

Tell us which Kd value is on record for EPADHLAIM
≥ 20 µM

---

# study target: HLA-A*02:03
# protocol summary: IEDB peptide-MHC binding, purified MHC/direct/fluorescence; filed as Kd, often an IC50 or EC50 that approximates it; bounds were set here for any values at or beyond the usual limits of such assays
# run conditions: source organism: Influenza A virus(A/swine/Shandong/fZC/2003(H9N2))
pKd: −log10 of the molar value.
reported metric: pKd

Tell us which pKd value is on record for TMLYNKMEF
≤ 4.70

---

# study target: HLA-C*06:02
# protocol summary: IEDB peptide-MHC binding, purified MHC/direct/fluorescence; filed as Kd, often an IC50 or EC50 that approximates it; bounds were set here for any values at or beyond the usual limits of such assays
# run conditions: source organism: Vibrio cholerae 2740-80
reported metric: pKd
Give bare numbers, as −log10 of the molar value.

Tell us which pKd value is on record for MMFDAMGAL
5.83

---

Can you tell me pKd for the items I'm about to list?
# study target: HLA-A*26:01
# protocol summary: IEDB peptide-MHC binding, purified MHC/direct/fluorescence; filed as Kd, often an IC50 or EC50 that approximates it; bounds were set here for any values at or beyond the usual limits of such assays
# run conditions: source organism: Coxiella burnetii
pKd: −log10 of the molar value.

| sequence entry | meas value |
| --- | --- |
| YYYNFSEDL | ≤ 4.70 |

Give HLA-A*26:01 pKd for the following sequence: WAPEGDIRL
≤ 4.70

---

# study target: HLA-B*15:17
# protocol summary: IEDB peptide-MHC binding, purified MHC/competitive/fluorescence; filed as Kd, often an IC50 or EC50 that approximates it; bounds were set here for any values at or beyond the usual limits of such assays
# run conditions: source organism: Orthohantavirus andesense
reported metric: Kd

Give HLA-B*15:17 Kd for the following sequence: IQNALEKAL
≥ 20 µM

---

# study target: HLA-A*24:02
# protocol summary: IEDB peptide-MHC binding, purified MHC/competitive/radioactivity; filed as Kd, often an IC50 or EC50 that approximates it; bounds were set here for any values at or beyond the usual limits of such assays
# run conditions: source organism: Mammarenavirus juninense
pKd: −log10 of the molar value.
reported metric: pKd

Tell us which pKd value is on record for LCLSGDGWPY
≤ 4.15

# credit: the Immune Epitope Database (IEDB)
